# TEST_NAME: Acute toxicity in mice
# PARTICULARS: mouse, in vivo, iv, 7 days observation, up and down method; read-out: (C) LD50 in mice
MEASURED_ATTRIBUTE: LD50 at 168 h
The answer consists of two parts: a number and, after it, its unit.

SMILES_REPR	MEASURED_ATTRIBUTE	OBSERVED_VALUE
N#CNC(=N)CCSCc1csc(NC(=N)N)n1	LD50 at 168 h	147 mg/kg

Next compound, LD50 at 168 h to be filled in.
Enquiry: Which LD50 at 168 h reading was recorded for the compound "NC(=O)N=C(N)CCSCc1csc(N=C(N)N)n1" ?
Return: 97.8 mg/kg
